Source: patent US8530461B2

IC50 reference
- target.or.system: human ACC2 (Homo sapiens)
- Construct: made in house; host or cells: insect cells (baculoviral expression system)
- assay.details: ACC2 assay, spectrophotometric 384 well assay (NADH-linked, coupled lactate dehydrogenase/pyruvate kinase)
- Assay type: biochemical
- particulars: ACC2 assay; human ACC2 construct lacking 128 N-terminal amino acids; 25° C., 340 nm, 15 minutes; read-out: IC50

{"sample.smiles": "CC(=O)N[C@@H](C)c1ccc(N2CC(Oc3ccccc3)C2)cc1", "target.or.system": "human ACC2 (Homo sapiens)", "reading.unit": "nM", "IC50": 790}
{"sample.smiles": "COc1cccc(OC2CN(c3ccc([C@H](C)NC(C)=O)cc3)C2)n1", "target.or.system": "human ACC2 (Homo sapiens)", "reading.unit": "nM", "IC50": 380}
{"sample.smiles": "CCOc1ccc(OC2CN(c3ccc([C@H](C)NC(=O)c4occc4C)cc3)C2)cc1", "target.or.system": "human ACC2 (Homo sapiens)", "reading.unit": "nM", "IC50": 1700}
{"sample.smiles": "CC(=O)N[C@@H](C)c1ccc(N2CC(Oc3ccc4c(c3)OCO4)C2)cc1", "target.or.system": "human ACC2 (Homo sapiens)", "reading.unit": "nM", "IC50": 320}

###

- target.or.system: human ACC2 (Homo sapiens, UniProt O00763)
- Construct: made in house; host or cells: insect cells (baculoviral expression system)
- Sequence (O00763 129-2458 limits assumed): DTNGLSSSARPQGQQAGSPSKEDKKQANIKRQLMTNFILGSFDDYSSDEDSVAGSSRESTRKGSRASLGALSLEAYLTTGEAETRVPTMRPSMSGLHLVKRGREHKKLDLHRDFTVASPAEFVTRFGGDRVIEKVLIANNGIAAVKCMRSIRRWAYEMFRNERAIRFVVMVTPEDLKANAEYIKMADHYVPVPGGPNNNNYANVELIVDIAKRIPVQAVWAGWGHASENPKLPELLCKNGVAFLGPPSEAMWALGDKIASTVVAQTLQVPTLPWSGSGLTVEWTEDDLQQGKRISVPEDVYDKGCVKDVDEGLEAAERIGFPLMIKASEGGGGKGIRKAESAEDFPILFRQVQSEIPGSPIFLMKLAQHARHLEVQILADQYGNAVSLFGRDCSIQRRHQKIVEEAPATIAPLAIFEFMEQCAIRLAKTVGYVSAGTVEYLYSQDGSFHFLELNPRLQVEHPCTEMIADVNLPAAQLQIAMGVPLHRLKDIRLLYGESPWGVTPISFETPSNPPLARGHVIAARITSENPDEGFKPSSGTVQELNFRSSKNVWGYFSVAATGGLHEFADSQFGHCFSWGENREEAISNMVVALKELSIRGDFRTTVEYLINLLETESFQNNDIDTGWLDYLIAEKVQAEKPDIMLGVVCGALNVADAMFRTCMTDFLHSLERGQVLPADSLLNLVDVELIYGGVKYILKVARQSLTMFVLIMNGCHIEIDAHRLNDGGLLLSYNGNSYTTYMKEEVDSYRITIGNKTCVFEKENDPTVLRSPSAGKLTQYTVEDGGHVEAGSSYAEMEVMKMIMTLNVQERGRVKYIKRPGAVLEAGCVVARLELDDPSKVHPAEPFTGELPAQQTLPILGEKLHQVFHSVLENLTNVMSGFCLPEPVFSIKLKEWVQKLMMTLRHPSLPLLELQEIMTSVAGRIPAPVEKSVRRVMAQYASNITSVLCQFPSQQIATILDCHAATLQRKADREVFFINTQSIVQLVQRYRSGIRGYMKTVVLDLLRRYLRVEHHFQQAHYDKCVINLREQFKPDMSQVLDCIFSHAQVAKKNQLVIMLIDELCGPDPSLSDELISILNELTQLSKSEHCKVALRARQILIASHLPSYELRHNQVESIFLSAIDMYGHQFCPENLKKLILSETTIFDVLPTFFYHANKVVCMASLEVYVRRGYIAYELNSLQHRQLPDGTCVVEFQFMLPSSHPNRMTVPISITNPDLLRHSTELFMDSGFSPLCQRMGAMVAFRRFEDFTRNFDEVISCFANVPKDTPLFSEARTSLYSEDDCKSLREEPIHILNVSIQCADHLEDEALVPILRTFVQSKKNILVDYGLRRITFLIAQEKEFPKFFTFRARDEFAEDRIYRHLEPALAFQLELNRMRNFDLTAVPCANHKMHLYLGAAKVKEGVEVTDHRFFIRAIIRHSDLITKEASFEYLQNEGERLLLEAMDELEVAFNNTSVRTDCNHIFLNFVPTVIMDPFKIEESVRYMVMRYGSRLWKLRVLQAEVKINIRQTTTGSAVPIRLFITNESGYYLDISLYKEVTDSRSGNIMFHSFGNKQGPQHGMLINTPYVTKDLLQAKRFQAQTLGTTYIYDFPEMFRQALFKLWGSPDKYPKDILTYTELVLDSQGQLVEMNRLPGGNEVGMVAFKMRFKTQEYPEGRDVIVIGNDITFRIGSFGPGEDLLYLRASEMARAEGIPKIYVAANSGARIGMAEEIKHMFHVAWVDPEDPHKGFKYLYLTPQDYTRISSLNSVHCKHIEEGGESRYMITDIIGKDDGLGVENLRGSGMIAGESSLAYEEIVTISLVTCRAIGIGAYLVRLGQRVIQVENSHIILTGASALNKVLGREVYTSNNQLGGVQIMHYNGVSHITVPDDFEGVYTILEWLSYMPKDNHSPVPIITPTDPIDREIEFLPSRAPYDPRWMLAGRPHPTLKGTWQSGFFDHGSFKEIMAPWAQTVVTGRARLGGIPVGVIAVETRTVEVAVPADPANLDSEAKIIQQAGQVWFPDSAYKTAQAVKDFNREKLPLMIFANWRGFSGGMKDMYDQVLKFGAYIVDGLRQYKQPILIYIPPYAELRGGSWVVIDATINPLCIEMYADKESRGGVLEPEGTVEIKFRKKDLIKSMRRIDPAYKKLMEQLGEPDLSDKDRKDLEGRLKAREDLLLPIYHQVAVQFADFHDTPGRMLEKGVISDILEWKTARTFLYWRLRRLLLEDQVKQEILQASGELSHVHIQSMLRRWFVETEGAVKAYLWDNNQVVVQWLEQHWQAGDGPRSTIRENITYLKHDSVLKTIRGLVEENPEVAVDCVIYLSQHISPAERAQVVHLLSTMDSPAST
- assay.details: ACC2 assay, spectrophotometric 384 well assay (NADH-linked, coupled lactate dehydrogenase/pyruvate kinase)
- Assay type: biochemical
- particulars: ACC2 assay; human ACC2 construct lacking 128 N-terminal amino acids; 25° C., 340 nm, 15 minutes; read-out: IC50
pIC50: −log10 of the molar value.
pIC50 reference

{"compound": "CC(=O)NC(C)(C)c1ccc(N2CC(Oc3ccc(OCC4CC4)cc3)C2)cc1 [Example 15.1]", "target.or.system": "human ACC2 (Homo sapiens, UniProt O00763)", "pIC50": 6.04}
{"compound": "CCC(C)c1ccc(OC2CN(c3ccc([C@H](C)NC(C)=O)cc3)C2)cc1 (stereo partly drawn) [Example 10.10]", "target.or.system": "human ACC2 (Homo sapiens, UniProt O00763)", "pIC50": 6.92}
{"compound": "CC(=O)N[C@@H](C)c1ccc(N2CC(Oc3ccc(Cl)cc3F)C2)cc1 [Example 10.16]", "target.or.system": "human ACC2 (Homo sapiens, UniProt O00763)", "pIC50": 5.65}
{"compound": "CCOc1ccc(OC2CN(c3ccc([C@H](C)NC(=O)C4CC4)cc3)C2)c(F)c1F [Example 10.24]", "target.or.system": "human ACC2 (Homo sapiens, UniProt O00763)", "pIC50": 5.65}
{"compound": "CCOc1ccc(OC2CN(c3ccc(C(C)NC(C)=O)cn3)C2)cc1 (stereo not drawn) [Example 8.6]", "target.or.system": "human ACC2 (Homo sapiens, UniProt O00763)", "pIC50": 6.77}
{"compound": "CCOc1ccc(OC2CN(c3ccc([C@H](C)NC(=O)CCOC)cc3)C2)cc1 [Example 1.67]", "target.or.system": "human ACC2 (Homo sapiens, UniProt O00763)", "pIC50": 5.89}
{"compound": "CCOc1ccc(OC2CN(c3ccc([C@H](C)NC(=O)NC)cc3)C2)cc1 [Example 4.3]", "target.or.system": "human ACC2 (Homo sapiens, UniProt O00763)", "pIC50": 6.00}
{"compound": "CCOc1ccc(OC2CN(c3ccc([C@H](C)NC(=O)CC4CC4)cc3)C2)cc1 [Example 1.15]", "target.or.system": "human ACC2 (Homo sapiens, UniProt O00763)", "pIC50": 5.59}
{"compound": "CCCC(=O)N[C@@H](C)c1ccc(N2CC(Oc3ccc(OCC)cc3)C2)cc1 [Example 1.6]", "target.or.system": "human ACC2 (Homo sapiens, UniProt O00763)", "pIC50": 6.55}
{"compound": "CCC(C)c1ccc(OC2CN(c3ccc([C@H](C)NC(=O)C4CC4)cc3)C2)cc1 (stereo partly drawn) [Example 10.26]", "target.or.system": "human ACC2 (Homo sapiens, UniProt O00763)", "pIC50": 6.43}
{"compound": "CCOc1ccc(OC2CN(c3ccc([C@H](C)NC(=O)Cc4cccnc4)cc3)C2)cc1 [Example 1.52]", "target.or.system": "human ACC2 (Homo sapiens, UniProt O00763)", "pIC50": 6.01}
{"compound": "C[C@H](NC(=O)N(C)C)c1ccc(N2CC(Oc3ccc(OCC4CC4)cc3)C2)cc1 [Example 4.15]", "target.or.system": "human ACC2 (Homo sapiens, UniProt O00763)", "pIC50": 7.15}

###

- target.or.system: human ACC2 (Homo sapiens)
- Construct: made in house; host or cells: insect cells (baculoviral expression system)
- assay.details: ACC2 assay, spectrophotometric 384 well assay (NADH-linked, coupled lactate dehydrogenase/pyruvate kinase)
- Format: biochemical
- particulars: ACC2 assay; human ACC2 construct lacking 128 N-terminal amino acids; 25° C., 340 nm, 15 minutes; read-out: IC50

{"compound": "CCOc1ccc(OC2CN(c3ccc([C@H](C)NC(=O)c4c[nH]cn4)cc3)C2)cc1", "IC50": "1160 nM"}
{"compound": "CCOc1ccc(OC2CN(c3ccc([C@H](C)NC(=O)CC#N)cc3)C2)cc1", "IC50": "590 nM"}
{"compound": "CC(=O)N[C@@H](C)c1ccc(N2CC(Oc3cccc(OCC4CC4(F)F)n3)C2)cc1 (stereo partly drawn)", "IC50": "650 nM"}
{"compound": "CCOc1ccc(OC2CN(c3ccc([C@H](C)NC(=O)C4CC4)cc3)C2)c(F)c1", "IC50": "2420 nM"}
{"compound": "CCOc1ccc(OC2CN(c3ccc([C@H](C)NC(=O)c4cc(C)oc4C)cc3)C2)cc1", "IC50": "1530 nM"}
{"compound": "CCOc1ccc(OC2CN(c3ccc([C@H](C)NC(=O)C4CCC(=O)N4)cc3)C2)cc1 (stereo partly drawn)", "IC50": "2060 nM"}

###

log10 IC50 reference
- target.or.system: human ACC2 (Homo sapiens, UniProt O00763)
- Construct: made in house; host or cells: insect cells (baculoviral expression system)
- assay.details: ACC2 assay, spectrophotometric 384 well assay (NADH-linked, coupled lactate dehydrogenase/pyruvate kinase)
- Assay type: biochemical
- particulars: ACC2 assay; human ACC2 construct lacking 128 N-terminal amino acids; 25° C., 340 nm, 15 minutes; read-out: IC50
reported.metric: log10 IC50 (log10 of the value in nM)

{"compound": "CCOc1ccc(OC2CN(c3ccc([C@H](C)NC(=O)C4CNC(=O)C4)cc3)C2)cc1 (some centres unmarked)", "assay.result": 3.11}
{"compound": "C[C@H](NC(=O)c1cncs1)c1ccc(N2CC(Oc3ccc(OCC4CC4)cc3)C2)cc1", "assay.result": 1.95}
{"compound": "CCOc1ccc(OC2CN(c3ccc([C@H](C)NC(C)=O)cc3)C2)c(F)c1F", "assay.result": 2.30}
{"compound": "C#CCCC(=O)N[C@@H](C)c1ccc(N2CC(Oc3ccc(OCC)cc3)C2)cc1", "assay.result": 3.02}
{"compound": "CC(=O)N[C@@H](C)c1ccc(N2CC(Oc3cccc(OCC4CC4)n3)C2)cc1", "assay.result": 3.14}
{"compound": "CC(C)COc1cc(OC2CN(c3ccc(C(C)NC(=O)C4CC4)cc3)C2)ccn1 (centres unmarked)", "assay.result": 2.36}
{"compound": "CCOc1ccc(OC2CN(c3ccc([C@H](C)NC(=O)N(C)CC4CC4)cc3)C2)cc1", "assay.result": 3.75}
{"compound": "Cc1cc2cc(OC3CN(c4ccc([C@H](C)NC(=O)C5CC5)cc4)C3)ccc2o1", "assay.result": 2.23}
{"compound": "CCOc1ccc(OC2CN(c3ccc([C@H](C)NC(=O)C4CCCC4)cc3)C2)cc1", "assay.result": 2.74}
{"compound": "CC(=O)N[C@@H](C)c1ccc(N2CC(Oc3cccc(C(C)C)n3)C2)cc1", "assay.result": 2.36}
{"compound": "CCOc1ccc(OC2CN(c3ccc([C@H](C)NC(=O)c4cccnc4)cc3)C2)cc1", "assay.result": 3.29}

###

IC50 reference
- target.or.system: human ACC2 (Homo sapiens, UniProt O00763)
- Construct: made in house; host or cells: insect cells (baculoviral expression system)
- assay.details: ACC2 assay, spectrophotometric 384 well assay (NADH-linked, coupled lactate dehydrogenase/pyruvate kinase)
- Type: biochemical
- particulars: ACC2 assay; human ACC2 construct lacking 128 N-terminal amino acids; 25° C., 340 nm, 15 minutes; read-out: IC50
reported.metric: IC50 (nM)

{"sample.smiles": "CCOc1ccc(OC2CN(c3ccc([C@H](C)NC(=O)c4ccnn4C)cc3)C2)cc1", "assay.result": 790}
{"sample.smiles": "CCOc1ccc(OC2CN(c3ccc([C@H](C)NC(=O)c4c(C)noc4N)cc3)C2)cc1", "assay.result": 740}
{"sample.smiles": "CC(=O)N[C@@H](C)c1ccc(N2CC(Oc3ccc(OC(F)(F)F)cc3)C2)cc1", "assay.result": 780}
{"sample.smiles": "CCOc1ccc(OC2CN(c3ccc([C@H](C)NC(=O)COC)cc3)C2)cc1", "assay.result": 1040}
{"sample.smiles": "COc1ccc(OC2CN(c3ccc([C@H](C)NC(C)=O)cc3)C2)c(Cl)c1", "assay.result": 570}
{"sample.smiles": "CCOc1ccc(OC2CN(c3ccc([C@H](C)NC(=O)c4sc(NC(C)=O)nc4C)cc3)C2)c(F)c1", "assay.result": 110}
{"sample.smiles": "C[C@H](NC(=O)CC#N)c1ccc(N2CC(Oc3ccc(OCC4CC4)cc3)C2)cc1", "assay.result": 200}
{"sample.smiles": "CC(=O)N[C@@H](C)c1ccc(N2CC(Oc3ccnc(OCC4CC4)c3)C2)cc1", "assay.result": 80}
